The measured values listed here are drawn from the OligoGym collection.

biological target: KRAS; conditions: ASO, A431, 2 µM
After the bases stand the sugars from the 5' end (letter, count) and the backbone: PS all phosphorothioate, else s phosphorothioate and o phosphodiester by linkage. Methylation of C is not given here. k = constrained ethyl (cEt); d = 2'-deoxy (DNA)
Measured Metric: target mRNA inhibition (%)
# value in %; strip the unit string

Here is how some sequences turned out for target mRNA inhibition.
>  <Biosequence>
TTGATTTGTCAGCAGG (sugars kkkddddddddkdkdk, PS)

>  <Measured Target>
KRAS

>  <Units>
%

>  <target mRNA inhibition>
19

$$$$
>  <Biosequence>
AAACAAATGCTAATAA (sugars k3 d10 k3, PS)

>  <Measured Target>
KRAS

>  <Units>
%

>  <target mRNA inhibition>
9

$$$$

From here, focus on the item given below.
Form field: reported target mRNA inhibition of CTCTCTATGAAAGCTC (sugars k3 d10 k3, PS)
29
